TARGET OF ASSAY: E. coli CFT073 full-length donor strand complemented PapG-II, PapGDSF N96S N242S N286S (Escherichia coli, UniProt A0A0H2VAQ6, N116S/N262S/N306S)
Construct: mouse IgGK signal peptide, C-terminal 8xHis, ExpiCHO, purified
Sequence (A0A0H2VAQ6 with tags, fused parts or gaps N116S/N262S/N306S): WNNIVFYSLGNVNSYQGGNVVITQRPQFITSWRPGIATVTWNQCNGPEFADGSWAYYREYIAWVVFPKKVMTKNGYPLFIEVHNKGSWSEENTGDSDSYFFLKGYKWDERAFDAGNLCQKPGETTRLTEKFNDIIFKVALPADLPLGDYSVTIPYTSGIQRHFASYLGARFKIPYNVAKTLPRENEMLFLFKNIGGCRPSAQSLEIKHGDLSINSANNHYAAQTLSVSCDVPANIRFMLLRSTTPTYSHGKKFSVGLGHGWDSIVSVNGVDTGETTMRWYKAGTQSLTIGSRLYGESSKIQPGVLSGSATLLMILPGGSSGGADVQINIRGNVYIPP
PROTOCOL DESCRIPTION: PapG Luminex ligand binding at equilibrium
CONDITION INFO: GbO4 beads, HEPES pH 7.4, 4° C. overnight, read-out: Kd (GbO4)
pKd: −log10 of the molar value.

SUBSTANCE: GalNAc-Gal-Gal-Glc-ceramide [GbO4]
pKd: 8.52

Cited source for all entries: patent US20260061042A1
